target: SLC6A12 (Homo sapiens, UniProt P48065); construct: expressed in transfected cells; host or cells: Jump In T-REx HEK293; assay: Membrane potential dye-based assay, HEK293–JumpIn–SLC6A12 cells; type: cell-based
Sequence (P48065 whole entry): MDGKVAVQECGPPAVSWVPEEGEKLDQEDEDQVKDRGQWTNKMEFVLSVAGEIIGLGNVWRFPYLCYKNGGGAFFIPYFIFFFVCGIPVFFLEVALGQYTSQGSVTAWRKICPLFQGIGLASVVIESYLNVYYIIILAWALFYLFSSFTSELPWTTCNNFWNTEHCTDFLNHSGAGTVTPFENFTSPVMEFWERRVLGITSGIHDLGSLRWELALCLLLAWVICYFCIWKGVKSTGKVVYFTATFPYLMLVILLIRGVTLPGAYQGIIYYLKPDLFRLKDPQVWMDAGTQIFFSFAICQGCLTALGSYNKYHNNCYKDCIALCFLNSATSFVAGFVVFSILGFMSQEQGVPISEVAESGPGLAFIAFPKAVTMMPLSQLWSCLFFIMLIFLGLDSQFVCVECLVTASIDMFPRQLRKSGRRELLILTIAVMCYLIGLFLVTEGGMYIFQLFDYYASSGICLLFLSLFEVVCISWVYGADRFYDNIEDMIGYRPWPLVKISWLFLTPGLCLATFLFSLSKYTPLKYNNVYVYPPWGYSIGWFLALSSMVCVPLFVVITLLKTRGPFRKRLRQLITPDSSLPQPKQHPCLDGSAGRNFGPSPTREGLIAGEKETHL
pIC50: −log10 of the molar value.
Measured Parameter: pIC50

# pIC50 of C=C(C)[C@H]1CN[C@H](C(=O)O)[C@H]1CC(=O)O = < 5.50

* * *

Exercise: state measured log10 of IC50 for each of the compounds provided.
Molecular target: SLC1A1 (Homo sapiens)
Sequence (P43005 1-524): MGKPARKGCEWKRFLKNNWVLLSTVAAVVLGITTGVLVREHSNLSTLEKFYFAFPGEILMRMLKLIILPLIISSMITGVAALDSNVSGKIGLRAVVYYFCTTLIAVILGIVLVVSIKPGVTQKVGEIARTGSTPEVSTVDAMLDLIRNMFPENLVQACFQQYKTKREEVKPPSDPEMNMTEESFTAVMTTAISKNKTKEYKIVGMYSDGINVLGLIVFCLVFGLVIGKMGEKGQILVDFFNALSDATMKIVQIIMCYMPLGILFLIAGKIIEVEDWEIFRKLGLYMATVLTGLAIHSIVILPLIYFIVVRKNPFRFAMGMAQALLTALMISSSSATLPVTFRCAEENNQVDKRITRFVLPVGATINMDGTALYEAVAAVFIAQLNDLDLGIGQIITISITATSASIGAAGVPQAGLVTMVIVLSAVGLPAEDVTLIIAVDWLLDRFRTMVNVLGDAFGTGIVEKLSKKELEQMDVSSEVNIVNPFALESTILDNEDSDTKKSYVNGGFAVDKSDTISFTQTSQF
Assay: Echo-MS assay, uptake of labeled glutamic acid in dox-induced HEK293–JumpIn–SLC1A1 (EAAT3) cells
Format: cell-based
Design: expressed in transfected cells; host or cells: Jump In T-REx HEK293
Settings: dox-induced HEK293–JumpIn–SLC1A1 cells; top conc. 30 µM; read-out: pIC50, SLC1A1, EchoMS (converted)
Record value = log10 of IC50 given in µM.

Field: example entries. Status: answers known.
Lab entry: SLC1A1 (Homo sapiens) assay, compound N#Cc1ccc(Nc2cnccc2SCc2ccccc2C(=O)O)c2ccccc12 , log10 of IC50 = 0.00

Lab entry: SLC1A1 (Homo sapiens) assay, compound N[C@H](C(=O)O)[C@H](OCc1cccc(NC(=O)c2ccc(C(F)(F)F)cc2)c1)C(=O)O , log10 of IC50 = -0.40

Okay, here is my list. What is log10 of IC50 for each of these?
1. N[C@@H](CC(=O)Nc1ccc(Oc2cc(F)c(F)cc2Br)cc1)C(=O)O
2. O=S(=O)(O)c1cc(N=C=S)ccc1/C=C/c1ccc(N=C=S)cc1S(=O)(=O)O
3. Nc1nc2ccc(OC(F)(F)F)cc2s1

[reply]
1: 0.50; 2: 0.80; 3: 0.90
